# System: S. pneumoniae D39V;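 note: OD595 on entry to stationary phase over no-drug wells; at most 1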
# protocol_text: fitness (endpoint OD595 vs no drug) (fraction); higher = more growth
# condition_details: first compound 0.0015 µg/mL; partner 2 µg/mL
Entries and their fitness values follow.
measured_endpoint: fitness

INSERT INTO assay_data (compound, endpoint_value) VALUES
  ('CC1(C)S[C@@H]2[C@H](NC(=O)[C@H](N)c3ccc(O)cc3)C(=O)N2[C@H]1C(=O)O [Amoxicillin] + O=C(O)[C@H]1/C(=C/CO)O[C@@H]2CC(=O)N21 [Clavulanic acid]', 0.819),
  ('CC1(C)S[C@@H]2[C@H](NC(=O)[C@H](N)c3ccc(O)cc3)C(=O)N2[C@H]1C(=O)O [Amoxicillin] + O=C1CN(/N=C/c2ccc([N+](=O)[O-])o2)C(=O)N1 [Nitrofurantoin]', 0.906),
  ('CC1(C)S[C@@H]2[C@H](NC(=O)[C@H](N)c3ccc(O)cc3)C(=O)N2[C@H]1C(=O)O [Amoxicillin] + CC1=C(C(=O)O)N2C(=O)[C@@H](NC(=O)[C@H](N)c3ccccc3)[C@H]2SC1 [Cephalexin]', 0.337),
  ('CC1(C)S[C@@H]2[C@H](NC(=O)[C@H](N)c3ccc(O)cc3)C(=O)N2[C@H]1C(=O)O [Amoxicillin] + Cc1cc(NS(=O)(=O)c2ccc(N)cc2)no1 [Sulfamethoxazol]', 0.928);
